assay: Human Phase 1 pharmacokinetics of GC4403; format: in vivo; conditions: both sexes, plasma, 4.9 mg IV over 30 minutes, read-out: AUC0-24 h

| molecule | AUC(0-t) / ng·h/mL |
| --- | --- |
| [Cl][Mn-5]1234([Cl])[n+]5c6cccc5C[NH+]1[C@@H]1CCCC[C@H]1[NH+]2CC[NH+]3[C@@H]1CCCC[C@H]1[NH+]4C6 (stereo partly shown) [GC4403] | 453 |

----------
experiment: Human Phase 1 pharmacokinetics of GC4419; conditions: both sexes, in vivo, 50 mg IV over 15 minutes

| molecule | AUC(0-inf) / ng·h/mL |
| --- | --- |
| [Cl][Mn-5]1234([Cl])[n+]5c6cccc5C[NH+]1[C@H]1CCCC[C@@H]1[NH+]2CC[NH+]3[C@H]1CCCC[C@@H]1[NH+]4C6 (stereo partly shown) | 4560 |

----------
experiment: Solubility (Table 1); format: physicochemical; settings: 26 mM bicarbonate buffered saline, aqueous buffer; at 25° C., pH 8.3; read-out: Solubility in 26 mM bicarbonate buffered saline
Catalogue of compounds with associated solubility

| compound | solubility, mg/mL |
| --- | --- |
| [Cl][Mn-5]1234([Cl])[n+]5c6cccc5C[NH+]1[C@H]1CCCC[C@@H]1[NH+]2CC[NH+]3[C@H]1CCCC[C@@H]1[NH+]4C6 (some centres unmarked) | 20 |
| [Cl][Mn-5]1234([Cl])[n+]5c6cccc5C[NH+]1[C@@H]1CCCC[C@H]1[NH+]2CC[NH+]3[C@@H]1CCCC[C@H]1[NH+]4C6 (some centres unmarked) | 20 |

----------
test: Human Phase 1 pharmacokinetics of GC4403; assay type: in vivo; conditions: both sexes, plasma, IV over 30 minutes, read-out: terminal elimination half-life (converted)

| compound | half-life |
| --- | --- |
| [Cl][Mn-5]1234([Cl])[n+]5c6cccc5C[NH+]1[C@@H]1CCCC[C@H]1[NH+]2CC[NH+]3[C@@H]1CCCC[C@H]1[NH+]4C6 (stereo partly shown) [GC4403] | ~1.5 h |

----------
assay: Human Phase 1 pharmacokinetics of GC4419; conditions: both sexes, in vivo, 10 mg IV over 15 minutes

| compound | measurement.units | AUC(0-inf) |
| --- | --- | --- |
| [Cl][Mn-5]1234([Cl])[n+]5c6cccc5C[NH+]1[C@H]1CCCC[C@@H]1[NH+]2CC[NH+]3[C@H]1CCCC[C@@H]1[NH+]4C6 (stereo partly shown) | ng·h/mL | 741 |

----------
test: Rat GC4419 14-day IV study; type: in vivo; settings: both sexes, rat, in vivo; rats, 15 minute IV infusion, 14 days
quantity: NOAEL at 14 days

| compound | observed.measurement |
| --- | --- |
| [Cl][Mn-5]1234([Cl])[n+]5c6cccc5C[NH+]1[C@H]1CCCC[C@@H]1[NH+]2CC[NH+]3[C@H]1CCCC[C@@H]1[NH+]4C6 (stereo partly shown) [GC4419] | 15 mg/kg/day |

----------
assay: Human Phase 1 pharmacokinetics of GC4419; details: both sexes, in vivo, 15 mg IV over 15 minutes

| compound | AUC(0-inf) [ng·h/mL] |
| --- | --- |
| [Cl][Mn-5]1234([Cl])[n+]5c6cccc5C[NH+]1[C@H]1CCCC[C@@H]1[NH+]2CC[NH+]3[C@H]1CCCC[C@@H]1[NH+]4C6 (stereo partly shown) | 1300 |

Data origin, for the record: patent US11826373B2
